The measurements presented in this section are drawn from paper PMC5587768.

Target: CXCR3-A (Homo sapiens)
Sequence (P49682 1-368): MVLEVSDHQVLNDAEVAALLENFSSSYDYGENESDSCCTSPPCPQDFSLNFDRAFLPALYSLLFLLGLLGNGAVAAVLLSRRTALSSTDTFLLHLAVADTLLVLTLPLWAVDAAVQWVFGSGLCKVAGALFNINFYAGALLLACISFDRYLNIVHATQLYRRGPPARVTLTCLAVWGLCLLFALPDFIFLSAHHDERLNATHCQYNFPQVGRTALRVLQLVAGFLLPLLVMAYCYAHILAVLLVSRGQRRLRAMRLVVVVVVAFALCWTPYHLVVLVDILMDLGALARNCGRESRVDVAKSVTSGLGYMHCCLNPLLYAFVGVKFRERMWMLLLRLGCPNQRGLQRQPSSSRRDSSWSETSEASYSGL
recordedEndpoint: pKd
Scale explanation: pKd corresponds to minus log10 of a concentration expressed in moles per litre.

[
  {
    "compound": "CC[C@H]1CN(c2nc(N)c(C(N)=O)nc2Cl)CCN1C1CCN(Cc2ccc(Cl)cc2)CC1 [SCH546738]",
    "studySystem": "CXCR3-A (Homo sapiens)",
    "readoutNumber": 9.30
  }
]

Let us examine a further case.
# compound NC(N)=NCCC[C@H](NC(=O)[C@@H]1Cc2ccccc2CN1C(=O)CCC(=O)c1ccccc1)C(=O)NCC1CCCCC1 [PS372424] ; its pKd = 7.40
